Target: T1, human VEGF (hVEGF) (human, UniProt P15692 181-395)
T1 construct: also called VEGF-A
T1 sequence: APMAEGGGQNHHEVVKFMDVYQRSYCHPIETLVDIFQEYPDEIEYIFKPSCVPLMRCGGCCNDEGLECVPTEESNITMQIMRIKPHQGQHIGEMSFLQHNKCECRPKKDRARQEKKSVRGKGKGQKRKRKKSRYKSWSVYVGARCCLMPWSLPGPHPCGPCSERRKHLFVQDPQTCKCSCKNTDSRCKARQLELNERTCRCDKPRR
Assay: SPR single-cycle;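 note: fab variants injected over hVEGF immobilized on a CM5 chip (Biacore T200), threefold dilution series from 0.02 to 50 nM, kinetics fitted with a 1:1 Langmuir model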
MEASURED QUANTITY: koff (s⁻¹)
Respond with the bare value in s⁻¹.

Sure, the documented koff for G6.31 LC-G57E (Fab, V domains shown, Fab) VH: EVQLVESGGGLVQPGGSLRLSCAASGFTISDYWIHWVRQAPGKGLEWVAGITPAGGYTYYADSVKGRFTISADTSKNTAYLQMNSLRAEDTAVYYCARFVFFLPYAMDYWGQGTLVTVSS VL: DIQMTQSPSSLSASVGDRVTITCRASQDVSTAVAWYQQKPGKAPKLLIYSASFLYSEVPSRFSGSGSGTDFTLTISSLQPEDFATYYCQQGYGNPFTFGQGTKVEIK is 0.000418

Sure, the documented koff for G6.31 HC-T28E (Fab, name in Kabat numbering, V domains shown, Fab) VH: EVQLVESGGGLVQPGGSLRLSCAASGFEISDYWIHWVRQAPGKGLEWVAGITPAGGYTYYADSVKGRFTISADTSKNTAYLQMNSLRAEDTAVYYCARFVFFLPYAMDYWGQGTLVTVSS VL: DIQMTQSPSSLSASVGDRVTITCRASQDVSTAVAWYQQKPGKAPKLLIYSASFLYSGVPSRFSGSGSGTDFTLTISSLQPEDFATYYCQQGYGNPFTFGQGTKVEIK is 0.000352

Sure, the documented koff for G6.31 HC-K64E (Fab, name in Kabat numbering, V domains shown, Fab) VH: EVQLVESGGGLVQPGGSLRLSCAASGFTISDYWIHWVRQAPGKGLEWVAGITPAGGYTYYADSVEGRFTISADTSKNTAYLQMNSLRAEDTAVYYCARFVFFLPYAMDYWGQGTLVTVSS VL: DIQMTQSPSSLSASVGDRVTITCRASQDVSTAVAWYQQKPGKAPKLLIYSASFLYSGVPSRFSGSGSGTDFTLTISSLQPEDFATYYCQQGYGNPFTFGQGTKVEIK is 0.000395

The reported numbers originate from patent US20210115124A1.
